- System: Bifidobacterium longum
- experiment_summary: Antibacterial activity against Bifidobacterium longum by CLSI M11-A6 agar dilution method
- Format: functional
test_readout: MIC90 (µg/mL)
Give the value, in units of µg/mL, as a plain number.

# molecule_smiles, scale_unit, MIC90
measured = [
    ("CCCCCCCCCC(=O)N[C@@H](Cc1c[nH]c2ccccc12)C(=O)N[C@H](CC(N)=O)C(=O)N[C@@H](CC(=O)O)C(=O)N[C@@H]1C(=O)NCC(=O)N[C@@H](CCCN)C(=O)N[C@@H](CC(=O)O)C(=O)N[C@H](C)C(=O)N[C@@H](CC(=O)O)C(=O)NCC(=O)N[C@H](CO)C(=O)N[C@@H]([C@H](C)CC(=O)O)C(=O)N[C@@H](CC(=O)c2ccccc2N)C(=O)O[C@@H]1C", "µg/mL", 32),
]

// next entry
Fill in the blank: the reported MIC90 of Cc1ncc([N+](=O)[O-])n1CCO is ____.
128

* * *

- Tested on: Clostridium bolteae
- experiment_summary: Antibacterial activity against Clostridium bolteae by CLSI M11-A6 agar dilution method
- Type: functional
- condition_parameters: Enterocloster bolteae
test_readout: MIC50 (µg/mL)
Give the value, in units of µg/mL, as a plain number.

Reference set (4 entries):
# molecule_smiles, target_desc, scale_unit, MIC50
rows = [
    ("CN[C@H](CC(C)C)C(=O)N[C@H]1C(=O)N[C@@H](CC(N)=O)C(=O)N[C@H]2C(=O)N[C@H]3C(=O)N[C@H](C(=O)N[C@H](C(=O)O)c4cc(O)cc(O)c4-c4cc3ccc4O)[C@H](O)c3ccc(c(Cl)c3)Oc3cc2cc(c3O[C@@H]2O[C@H](CO)[C@@H](O)[C@H](O)[C@H]2O[C@H]2C[C@](C)(N)[C@H](O)[C@H](C)O2)Oc2ccc(cc2Cl)[C@H]1O", "Clostridium bolteae", "µg/mL", 2),
    ("CCCCCCCCCC(=O)N[C@@H](Cc1c[nH]c2ccccc12)C(=O)N[C@H](CC(N)=O)C(=O)N[C@@H](CC(=O)O)C(=O)N[C@@H]1C(=O)NCC(=O)N[C@@H](CCCN)C(=O)N[C@@H](CC(=O)O)C(=O)N[C@H](C)C(=O)N[C@@H](CC(=O)O)C(=O)NCC(=O)N[C@H](CO)C(=O)N[C@@H]([C@H](C)CC(=O)O)C(=O)N[C@@H](CC(=O)c2ccccc2N)C(=O)O[C@@H]1C", "Clostridium bolteae", "µg/mL", 4),
    ("CCC[C@@H]1C[C@@H](C(=O)N[C@@H]([C@H]2O[C@H](SC)[C@H](O)[C@@H](O)[C@H]2O)[C@H](C)Cl)N(C)C1", "Clostridium bolteae", "µg/mL", 2),
    ("CCCCCCCCCCNCCN[C@@]1(C)C[C@H](O[C@H]2[C@H](Oc3c4cc5cc3Oc3ccc(cc3Cl)[C@@H](O)[C@@H](NC(=O)[C@@H](CC(C)C)NC)C(=O)N[C@@H](CC(N)=O)C(=O)N[C@H]5C(=O)N[C@H]3C(=O)N[C@H](C(=O)N[C@H](C(=O)O)c5cc(O)c(CNCP(=O)(O)O)c(O)c5-c5cc3ccc5O)[C@H](O)c3ccc(c(Cl)c3)O4)O[C@H](CO)[C@@H](O)[C@@H]2O)O[C@@H](C)[C@H]1O", "Clostridium bolteae", "µg/mL", 4),
]

// next entry
Fill in the blank: the reported MIC50 of CC(=O)NC[C@H]1CN(c2ccc(N3CCOCC3)c(F)c2)C(=O)O1 is ____.
4

Cited source: ChEMBL document CHEMBL1671662
